test: Dose required for 50% lethality after intraperitoneal administration in mice; type: ADME, organism-based; details: mouse, in vivo, ip
VALUE KIND: LD50 (mg/kg)

[
  {
    "COMPOUND": "Cl.O=c1oc(CCN2CCN(c3cccc(C(F)(F)F)c3)CC2)c(-c2ccc(F)cc2)o1",
    "VALUE KIND": "LD50",
    "OPERATOR SYMBOL": "=",
    "ASSAY RESULT": 1000
  },
  {
    "COMPOUND": "Cl.O=c1oc(CCN2CCN(c3ccccc3)CC2)c(-c2ccc(F)cc2)o1",
    "VALUE KIND": "LD50",
    "OPERATOR SYMBOL": "=",
    "ASSAY RESULT": 936
  },
  {
    "COMPOUND": "Cc1ccc(-c2oc(=O)oc2CCN2CCN(c3ccccc3)CC2)cc1.Cl",
    "VALUE KIND": "LD50",
    "OPERATOR SYMBOL": ">",
    "ASSAY RESULT": 1000
  },
  {
    "COMPOUND": "COc1ccccc1N1CCN(CCc2oc(=O)oc2-c2ccc(F)cc2)CC1.Cl",
    "VALUE KIND": "LD50",
    "OPERATOR SYMBOL": "=",
    "ASSAY RESULT": 350
  },
  {
    "COMPOUND": "COc1ccc(-c2oc(=O)oc2CCN2CCN(c3ccccc3)CC2)cc1.Cl",
    "VALUE KIND": "LD50",
    "OPERATOR SYMBOL": ">",
    "ASSAY RESULT": 1000
  },
  {
    "COMPOUND": "Cl.O=c1oc(CCN2CCN(c3ccccc3)CC2)c(-c2ccccc2)o1",
    "VALUE KIND": "LD50",
    "OPERATOR SYMBOL": "=",
    "ASSAY RESULT": 500
  },
  {
    "COMPOUND": "Cl.O=c1oc(CCN2CCN(c3cccc(Cl)c3)CC2)c(-c2ccc(F)cc2)o1",
    "VALUE KIND": "LD50",
    "OPERATOR SYMBOL": "=",
    "ASSAY RESULT": 500
  },
  {
    "COMPOUND": "CC(C)(C)NC(=O)OC(CCN1CCN(c2ccccc2)CC1)C(=O)c1ccc(F)cc1 (stereo not drawn)",
    "VALUE KIND": "LD50",
    "OPERATOR SYMBOL": ">",
    "ASSAY RESULT": 1000
  }
]

====

test: Dose required for 50% lethality after intraperitoneal administration in mice; format: ADME, organism-based; settings: mouse, in vivo, ip
# key: entry, value: LD50
VALUE KIND: LD50

[
  {
    "MOLECULE": "Cl.O=c1oc(CCN2CCN(c3cc(Cl)cc(Cl)c3)CC2)c(-c2ccc(F)cc2)o1",
    "ASSAY RESULT": "> 1000 mg/kg"
  },
  {
    "MOLECULE": "Cl.O=c1oc(CCN2CCN(c3ccc(Cl)cc3)CC2)c(-c2ccc(Cl)cc2)o1",
    "ASSAY RESULT": "> 1000 mg/kg"
  },
  {
    "MOLECULE": "Cl.O=c1oc(CCN2CCN(c3ccccc3)CC2)c(-c2ccc(-c3ccccc3)cc2)o1",
    "ASSAY RESULT": "> 1000 mg/kg"
  },
  {
    "MOLECULE": "COc1cc(C(=O)OC(CCN2CCN(c3ccccc3)CC2)C(=O)c2ccc(F)cc2)cc(OC)c1OC.Cl (centres undefined)",
    "ASSAY RESULT": "> 1000 mg/kg"
  },
  {
    "MOLECULE": "CN(C)C(=O)OC(CCN1CCN(c2ccccc2)CC1)C(=O)c1ccc(F)cc1.Cl (centres undefined)",
    "ASSAY RESULT": "150 mg/kg"
  },
  {
    "MOLECULE": "Cl.O=c1oc(CCN2CCN(c3ccccc3)CC2)c(-c2ccc(Cl)cc2)o1",
    "ASSAY RESULT": "865 mg/kg"
  },
  {
    "MOLECULE": "Cl.O=C(c1ccc(F)cc1)C(O)CCN1CCN(c2ccccc2)CC1 (centres undefined)",
    "ASSAY RESULT": "> 1000 mg/kg"
  },
  {
    "MOLECULE": "CC(=O)OC(CCN1CCN(c2ccccc2)CC1)C(=O)c1ccc(F)cc1.O=C(O)/C=C/C(=O)O (centres undefined)",
    "ASSAY RESULT": "575 mg/kg"
  },
  {
    "MOLECULE": "CSc1ccc(-c2oc(=O)oc2CCN2CCN(c3ccccc3)CC2)cc1.Cl",
    "ASSAY RESULT": "> 1000 mg/kg"
  }
]
